target: UniProtKB P08684; assay: CYP inhibition assay; format: in vitro ADME; conditions: pooled human liver microsomes; extrapolated IC50 derived from 3 μM; read-out: IC50 (μM) of CYP isoforms, 3A4
Sequence (P08684 whole entry, canonical isoform): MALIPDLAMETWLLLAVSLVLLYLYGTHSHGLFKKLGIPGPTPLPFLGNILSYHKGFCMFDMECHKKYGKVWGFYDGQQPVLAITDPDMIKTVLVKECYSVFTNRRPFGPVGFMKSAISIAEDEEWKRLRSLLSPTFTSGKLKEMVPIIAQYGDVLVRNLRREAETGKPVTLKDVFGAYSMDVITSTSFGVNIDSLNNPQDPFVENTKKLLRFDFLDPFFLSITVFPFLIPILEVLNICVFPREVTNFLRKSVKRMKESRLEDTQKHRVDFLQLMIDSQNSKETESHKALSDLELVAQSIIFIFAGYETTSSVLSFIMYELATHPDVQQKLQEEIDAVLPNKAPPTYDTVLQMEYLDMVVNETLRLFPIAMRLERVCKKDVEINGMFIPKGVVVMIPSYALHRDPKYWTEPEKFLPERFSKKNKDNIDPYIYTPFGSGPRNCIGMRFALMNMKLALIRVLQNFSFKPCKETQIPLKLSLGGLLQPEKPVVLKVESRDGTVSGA
Readout: IC50 (µM)

Smiles data: O=CN(C[C@H]1CN(c2ccc(N3CCOCC3=O)cc2)C(=O)O1)C(=O)c1ccc(Cl)s1
Tested target: UniProtKB P08684
Readout: IC50
Val: 5.7

====

biological target: CYP2C19 (Homo sapiens (Human)); assay: CYP inhibition assay; assay type: in vitro ADME; conditions: pooled human liver microsomes; extrapolated IC50 derived from 3 μM; read-out: IC50 (μM) of CYP isoforms, 2C19
Sequence (P33261 whole entry, canonical isoform): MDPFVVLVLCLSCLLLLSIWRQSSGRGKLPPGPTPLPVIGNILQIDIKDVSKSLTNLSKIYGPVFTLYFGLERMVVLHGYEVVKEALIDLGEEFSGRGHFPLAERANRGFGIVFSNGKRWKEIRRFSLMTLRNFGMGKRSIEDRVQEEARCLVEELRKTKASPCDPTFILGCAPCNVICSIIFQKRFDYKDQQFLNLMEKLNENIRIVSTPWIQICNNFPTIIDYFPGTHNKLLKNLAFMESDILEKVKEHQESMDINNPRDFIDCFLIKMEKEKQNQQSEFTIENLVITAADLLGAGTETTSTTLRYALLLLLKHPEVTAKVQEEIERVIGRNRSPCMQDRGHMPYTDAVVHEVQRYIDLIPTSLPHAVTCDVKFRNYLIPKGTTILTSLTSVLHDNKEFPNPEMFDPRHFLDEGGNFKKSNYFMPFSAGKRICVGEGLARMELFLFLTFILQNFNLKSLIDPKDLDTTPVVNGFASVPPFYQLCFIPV
# key: entry, value: IC50

Smiles data: O=CN(C[C@H]1CN(c2ccc(N3CCOCC3=O)cc2)C(=O)O1)C(=O)c1ccc(Cl)s1
Tested target: CYP2C19 (Homo sapiens (Human))
IC50 / µM: 25.3
//
Smiles data: O=C(NC[C@H]1CN(c2ccc(N3CCOCC3=O)cc2)C(=O)O1)c1ccc(Cl)s1
Tested target: CYP2C19 (Homo sapiens (Human))
IC50 / µM: 13.2

====

test: Permeability in caco2 system; format: in vitro ADME; conditions: human, Caco-2, caco2 system; read-out: Papp A > B

Smiles data: O=CN(C[C@H]1CN(c2ccc(N3CCOCC3=O)cc2)C(=O)O1)C(=O)c1ccc(Cl)s1
Endpoint unit: nm/s
Papp: 174

====

molecular target: CYP2D6 (Homo sapiens (Human), UniProt P10635); test: CYP inhibition assay; type: in vitro ADME; details: pooled human liver microsomes; extrapolated IC50 derived from 3 μM; read-out: IC50 (μM) of CYP isoforms, 2D6
Sequence (P10635 whole entry, canonical isoform): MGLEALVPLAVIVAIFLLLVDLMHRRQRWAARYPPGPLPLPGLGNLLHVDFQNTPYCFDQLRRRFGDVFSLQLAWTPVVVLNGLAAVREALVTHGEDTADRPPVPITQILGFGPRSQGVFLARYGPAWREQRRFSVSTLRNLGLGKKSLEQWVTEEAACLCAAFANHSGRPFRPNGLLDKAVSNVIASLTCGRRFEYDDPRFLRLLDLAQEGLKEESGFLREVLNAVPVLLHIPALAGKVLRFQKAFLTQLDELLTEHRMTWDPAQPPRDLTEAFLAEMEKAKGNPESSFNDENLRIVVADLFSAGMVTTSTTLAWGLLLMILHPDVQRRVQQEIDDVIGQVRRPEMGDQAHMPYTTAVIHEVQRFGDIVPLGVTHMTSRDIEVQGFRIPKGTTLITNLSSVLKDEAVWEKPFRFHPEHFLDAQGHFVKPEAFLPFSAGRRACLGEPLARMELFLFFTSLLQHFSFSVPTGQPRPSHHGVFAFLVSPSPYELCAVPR
Readout: IC50 (µM)

Molecule: O=C(NC[C@H]1CN(c2ccc(N3CCOCC3=O)cc2)C(=O)O1)c1ccc(Cl)s1 [Rivaroxaban]
Tested target: CYP2D6 (Homo sapiens (Human), UniProt P10635)
Readout: IC50
Endpoint unit: µM
Val: 13.2
--
Molecule: O=CN(C[C@H]1CN(c2ccc(N3CCOCC3=O)cc2)C(=O)O1)C(=O)c1ccc(Cl)s1 [Compound formula B]
Tested target: CYP2D6 (Homo sapiens (Human), UniProt P10635)
Readout: IC50
Endpoint unit: µM
Val: 8.2

====

assay: Intravenous and oral excretion profile in Wistar rats; format: in vivo; conditions: male, Wistar, rat, faeces, iv, 1 mg/kg
Readout: concentration at 144 h (ng/g)

Smiles data: O=C(NC[C@H]1CN(c2ccc(N3CCOCC3=O)cc2)C(=O)O1)c1ccc(Cl)s1
Readout: concentration at 144 h
Endpoint unit: ng/g
Val: 16.8

====

test: Permeability in caco2 system; format: in vitro ADME; details: human, Caco-2, caco2 system; read-out: Papp B > A

Compound: O=CN(C[C@H]1CN(c2ccc(N3CCOCC3=O)cc2)C(=O)O1)C(=O)c1ccc(Cl)s1 [Compound formula B]
Papp [×10⁻⁶ cm/s]: 40.3

====

molecular target: CYP2J2 (Homo sapiens (Human), UniProt P51589); assay: CYP inhibition assay; format: in vitro ADME; conditions: pooled human liver microsomes; extrapolated IC50 derived from 3 μM; read-out: IC50 (μM) of CYP isoforms, 2J2
Sequence (P51589 whole entry, canonical isoform): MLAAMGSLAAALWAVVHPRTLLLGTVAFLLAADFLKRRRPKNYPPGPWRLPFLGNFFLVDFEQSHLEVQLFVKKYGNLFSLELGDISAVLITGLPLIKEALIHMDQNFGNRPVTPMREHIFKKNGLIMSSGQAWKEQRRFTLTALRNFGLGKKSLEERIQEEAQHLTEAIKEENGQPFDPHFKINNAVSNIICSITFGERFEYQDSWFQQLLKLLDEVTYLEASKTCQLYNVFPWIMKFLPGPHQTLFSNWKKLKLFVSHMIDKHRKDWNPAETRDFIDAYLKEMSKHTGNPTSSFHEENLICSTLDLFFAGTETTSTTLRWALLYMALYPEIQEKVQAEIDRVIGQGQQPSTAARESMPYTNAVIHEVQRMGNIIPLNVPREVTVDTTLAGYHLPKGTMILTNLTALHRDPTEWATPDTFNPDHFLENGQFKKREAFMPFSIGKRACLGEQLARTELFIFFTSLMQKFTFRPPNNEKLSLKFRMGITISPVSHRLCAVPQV
Readout: IC50 (µM)

Molecule: O=CN(C[C@H]1CN(c2ccc(N3CCOCC3=O)cc2)C(=O)O1)C(=O)c1ccc(Cl)s1 [Compound formula B]
Readout: IC50
Endpoint unit: µM
Val: 6.7

====

tested on: CYP1A2, CYP2C9, CYP2D6, CYP2C19, CYP2J2 and CYP3A4; assay: CYP inhibition assay, all isoforms (overall interpretation); assay type: in vitro ADME, human; details: human, pooled human liver microsomes, pH 7.4; all assayed isoforms; minimal inhibition; read-out: inhibition of the CYP isoforms that were assayed
pIC50: −log10 of the molar value.

Smiles data: O=CN(C[C@H]1CN(c2ccc(N3CCOCC3=O)cc2)C(=O)O1)C(=O)c1ccc(Cl)s1
pIC50: < 6.00

====

assay: Permeability in caco2 system; assay type: in vitro ADME; conditions: human, Caco-2, caco2 system; read-out: Interpretation: permeability, classification based on Papp

Smiles data: O=CN(C[C@H]1CN(c2ccc(N3CCOCC3=O)cc2)C(=O)O1)C(=O)c1ccc(Cl)s1
Papp: > 20 ×10⁻⁶ cm/s
